// data source = patent US12084462B2

# Tested on: MOLM14
# Procedure details: Proliferation assay (spheroid assay) MOLM14
# Type: cell-based, human
# Measurement parameters: Homo sapiens, MOLM-14, MOLM14; averaged values; read-out: Spheroid assay MOLM14 (IC50 (μM))
Reported endpoint: IC50 (µM)

CC(C)[C@H](C1CCNCC1)N1CC2(CCN(c3ncnc4sc(CC(F)(F)F)cc34)C2)C1 ... 0.86
FC(F)(F)Cc1cc2c(N3CCC4(CN(Cc5cn6ccccc6n5)C4)C3)ncnc2s1 ... 30.6
FC(F)(F)Cc1cc2c(N3CCC[C@@]4(CCN(Cc5ccccc5)C4)C3)ncnc2s1 (single isomer, unassigned) [Compound 21b] ... 4.6
OCc1ccccc1CN1CC2(CCN(c3ncnc4sc(CC(F)(F)F)cc34)C2)C1 ... 8.6

P = CC(C1CCOCC1)N1CC2(CCN(c3ncnc4sc(CC(F)(F)F)cc34)C2)C1 (centres unmarked) [Compound 145]
Q = CC(C)CN1CC2(CCN(c3ncnc4sc(CC(F)(F)F)cc34)C2)C1
Looking only at measured IC50, which entry is lower, P or Q ? Identify your selection by its label.
Q
